B1: CPEB3 Ribozyme (parent)
chain: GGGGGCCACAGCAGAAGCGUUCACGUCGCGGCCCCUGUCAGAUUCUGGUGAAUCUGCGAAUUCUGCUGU

Variants of: B1
Measurement protocol: self-cleavage, relative activity (ratio to wild type); higher = more cleavage; co-transcriptional
Measure: self-cleavage
Would you mind answering with just the numeric figure?

G30U C54G = 0.248
C7A G31C = 0.159

For record U21A G56A the listed self-cleavage is 0.954

Briefly, self-cleavage measured for U38A G47A : 0.916

Every entry's value here was drawn from the RNAGym collection of RNA variant scans (doi:10.7554/elife.80360).
